Molecular target: KRas G12S (Homo sapiens, UniProt P01116, G12S)
Construct: Biotinylated KRas (corresponding to amino acids 1-169, produced at Accelegan Inc.); biotin (biotinylated); purchased Accelegan Inc
Sequence (P01116 1-169 isoform P01116-2 G12S): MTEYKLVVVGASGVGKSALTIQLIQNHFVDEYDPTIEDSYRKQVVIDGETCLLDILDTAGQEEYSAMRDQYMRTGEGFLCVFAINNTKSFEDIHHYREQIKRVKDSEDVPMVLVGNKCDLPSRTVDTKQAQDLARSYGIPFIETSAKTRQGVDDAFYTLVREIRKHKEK
Experiment: KRas binding assay, TR-FRET displacement of Cy5 labelled tracer
Conditions: 60-minute incubation at room temperature, 1% DMSO, pH 7.5
measured property: IC50

compound	result
CC(=O)N(C)C(=O)C(C)CCN(C)c1nc(OC[C@@]23CCCN2C[C@H](F)C3)nc2c(F)c(-c3ccc(F)c4sc(N)c(C#N)c34)c(Cl)cc12 (stereo partly drawn)	4 nM
N#Cc1c(N)sc2c(F)ccc(-c3c(Cl)cc4c(N5CCC(C(=O)n6cccn6)CC5)nc(OC[C@@]56CCCN5C[C@H](F)C6)nc4c3F)c12	5 nM
N#Cc1c(N)sc2c(F)ccc(-c3c(Cl)cc4c(N5CCC(C(=O)Oc6ccccc6)CC5)nc(OC[C@@]56CCCN5C[C@H](F)C6)nc4c3F)c12	16 nM
Cc1ccn(C(=O)CCN(C)c2cc(O[C@@H](C)[C@@H]3CCCN3C)nc(-c3noc([C@]4(C)CCCc5sc(N)c(C#N)c54)n3)n2)n1	179 nM
Cc1ccn(C(=O)C2CCCN(c3nc(OC[C@@]45CCCN4C[C@H](F)C5)nc4c(F)c(-c5c(C#N)c(N)cc(C)c5C(F)(F)F)c(Cl)cc34)CC2)n1 (stereo partly drawn)	57 nM

# input compound: CCc1c(F)ccc2cc(O)cc(-c3ncc4c(N5CCC(C(=O)n6ccc(C(C)(C)C)n6)CC5)nc(OC[C@@]56CCCN5C[C@H](F)C6)nc4c3F)c12 ; wanted: its IC50
346 nM

====

Molecular target: KRas G12S (Homo sapiens, UniProt P01116, G12S)
Construct: Biotinylated KRas (corresponding to amino acids 1-169, produced at Accelegan Inc.); biotin (biotinylated); purchased Accelegan Inc
Assay: KRas binding assay, TR-FRET displacement of Cy5 labelled tracer
Settings: 60-minute incubation at room temperature, 1% DMSO, pH 7.5
Reported IC50 values follow for various compounds
Numeric answer only, unit nM assumed.

Reference set, count: 4
compound	quantitative result
CCc1c(F)ccc2cc(O)cc(-c3ncc4c(N5CCCC(C(=O)n6ccc(C)n6)CC5)nc(OCC5(CN(C)C)CC5)nc4c3F)c12 (stereo not drawn)	29
CCc1c(F)ccc2cc(O)cc(N3CCc4c(nc(OC[C@@]56CCCN5C[C@H](F)C6)nc4N4CCCCCC(C(=O)n5ccc(C)n5)C4)C3)c12 (stereo partly drawn)	35
CCc1c(F)ccc2cc(O)cc(-c3ncc4c(N(C)CCNC(=O)n5cncn5)nc(OC[C@@]56CCCN5C[C@H](F)C6)nc4c3F)c12	18
CCc1c(F)ccc2cc(O)cc(-c3ncc4c(N5CCC(C(=O)N(C)C(=O)C(C)C)CC5)nc(OC[C@@]56CCCN5C[C@H](F)C6)nc4c3F)c12	203

GET /values?readout=IC50&item= CCc1c(F)ccc2cc(O)cc(-c3ncc4c(N5CCC(C(=O)N(C)C(C)=O)CC5)nc(OC[C@@]56CCCN5C[C@H](F)C6)nc4c3F)c12
135

Entry CN(C(=O)CCCN(C)c1nc(OC[C@@]23CCCN2C[C@H](F)C3)nc2c(F)c(-c3ccc(F)c4sc(N)c(C#N)c34)c(Cl)cc12)C(=O)c1ccn(C)n1 : reported IC50 = ?
5

Look up IC50 for this compound: CCc1c(F)ccc2cc(O)cc(-c3ncc4c(N5CCCCC(C(=O)n6ccc(C)n6)CC5)nc(OC[C@@]56CCCN5C/C(=C\F)C6)nc4c3F)c12 (stereo partly drawn)
3

May I ask what IC50 has been recorded for Cc1ccn(C(=O)C2CCCN(c3nc(OC[C@@]45CCCN4C[C@H](F)C5)nc4c(F)c(-c5c(I)ccc(N)c5C#N)c(Cl)cc34)CC2)n1 (stereo partly drawn) ?
490

Tell me the measured IC50 of CN(C)CCc1ccn(C(=O)C2CCCN(c3nc(OC[C@@]45CCCN4C[C@H](F)C5)nc4c(F)c(-c5ccc(F)c6sc(N)c(C#N)c56)c(Cl)cc34)CC2)n1 (stereo partly drawn) , please.
4

Reported IC50, compound CON(C)C(=O)C1CCN(c2nc(OC[C@@]34CCCN3C[C@H](F)C4)nc3c(F)c(-c4ccc(F)c5sc(N)c(C#N)c45)c(Cl)cc23)CC1 : ____
12

// IC50 lookup, key: N#Cc1c(N)sc2c(F)ccc(-c3c(Cl)cc4c(N5CCC(C(=O)Oc6cccnc6)CC5)nc(OC[C@@]56CCCN5C[C@H](F)C6)nc4c3F)c12
3

====

Molecular target: KRas G12S (Homo sapiens, UniProt P01116, G12S)
Construct: Biotinylated KRas (corresponding to amino acids 1-169, produced at Accelegan Inc.); biotin (biotinylated); purchased Accelegan Inc
Assay: KRas binding assay, TR-FRET displacement of Cy5 labelled tracer
Conditions: 60-minute incubation at room temperature, 1% DMSO, pH 7.5
measured property: IC50

Consider the following illustrative entries.
molecule	IC50
CCc1c(F)ccc2cc(O)cc(-c3ncc4c(N(C)CCNC(=O)n5ccnn5)nc(OC[C@@]56CCCN5C[C@H](F)C6)nc4c3F)c12	34 nM
CCc1c(F)ccc2cc(O)cc(-c3ncc4c(N5CCCC6CC6(C(=O)n6ccc(C)n6)CC5)nc(OC[C@@]56CCCN5C[C@H](F)C6)nc4c3F)c12 (stereo partly drawn)	158 nM
O=C(Oc1ccccc1)C1CCN(c2nc(OCC34CCCN3CCC4)nc3c(F)c(-c4cccc5cccc(F)c45)ncc23)CC1	81100 nM

Report IC50 for CCc1c(F)ccc2cc(O)cc(-c3ncc4c(N(CC)CCCC(=O)n5ccc(C)n5)nc(OC[C@@]56CCCN5C[C@H](F)C6)nc4c3F)c12 please.
8 nM

Entry CCc1c(F)ccc2cc(O)cc(-c3ncc4c(N(C)CCC(=O)n5ccc(C)n5)nc(OC[C@@]56CCCN5C[C@H](F)C6)nc4c3F)c12 has what IC50?
16 nM

Entry O=C(Oc1ccc(F)cc1F)C1CCN(c2nc(OCC34CCCN3CCC4)nc3c(F)c(-c4cccc5cccc(F)c45)ncc23)CC1 : reported IC50 = ?
39000 nM

====

Target: KRas G12S (Homo sapiens, UniProt P01116, G12S)
Construct: Biotinylated KRas (corresponding to amino acids 1-169, produced at Accelegan Inc.); biotin (biotinylated); purchased Accelegan Inc
Assay: KRas binding assay, TR-FRET displacement of Cy5 labelled tracer
Conditions: 60-minute incubation at room temperature, 1% DMSO, pH 7.5
The reader will find reported log10 of IC50 values listed item by item below.
All values: base-10 log of IC50 in nM.

Recorded results for 5 molecules are shown here.
molecule	experimental system	log10 of IC50
O=C(Oc1ccc(C(F)(F)F)cc1)C1CCN(c2nc(OCC34CCCN3CCC4)nc3c(F)c(-c4cccc5cccc(F)c45)ncc23)CC1	KRas G12S (Homo sapiens, UniProt P01116, G12S)	4.83
CCc1c(F)ccc2cc(O)cc(-c3ncc4c(N5CCCC(C(=O)n6ccc(C)n6)CCC5)nc(OC[C@@]56CCCN5C[C@H](F)C6)nc4c3F)c12	KRas G12S (Homo sapiens, UniProt P01116, G12S)	2.42
Cc1ccn(C(=O)C2CCN(c3nc(OC[C@@]45CCCN4C/C(=C\F)C5)nc4c(F)c(-c5ccc(F)c6sc(N)c(C#N)c56)c(Cl)cc34)CC2)n1	KRas G12S (Homo sapiens, UniProt P01116, G12S)	0.78
CCc1c(F)ccc2cc(O)cc(-c3ncc4c(N5CCCC(C(=O)n6ccc(C)n6)CC5)nc(OC[C@@H]5CCCN5C)nc4c3F)c12 (stereo partly drawn)	KRas G12S (Homo sapiens, UniProt P01116, G12S)	1.86
CCc1c(F)ccc2cc(O)cc(-c3ncc4c(N5CCC(C(=O)N(C)C(=O)C(C)(C)C)CC5)nc(OC[C@@]56CCCN5C[C@H](F)C6)nc4c3F)c12	KRas G12S (Homo sapiens, UniProt P01116, G12S)	2.41

Now look at this entry.
Query the reported log10 of IC50 for KRas G12S (Homo sapiens, UniProt P01116, G12S); item: Cc1ccn(C(=O)C2CCCCCN(c3nc(OC[C@@]45CCCN4C[C@H](F)C5)nc4c(F)c(-c5ccc(F)c6sc(N)c(C#N)c56)c(Cl)cc34)C2)n1 (stereo partly drawn)
1.43

====

Molecular target: KRas-mediated phosphorylation of ERK in MKN1 cells (Homo sapiens)
Construct: pERK HTRF read-out
Sequence (P01116 1-188 isoform P01116-2): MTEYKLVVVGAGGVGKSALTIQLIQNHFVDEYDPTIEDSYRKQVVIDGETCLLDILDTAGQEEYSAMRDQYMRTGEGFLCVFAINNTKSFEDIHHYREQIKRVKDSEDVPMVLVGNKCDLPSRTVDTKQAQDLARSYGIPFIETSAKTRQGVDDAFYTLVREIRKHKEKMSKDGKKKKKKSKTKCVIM
Test: Inhibition of KRas-mediated phosphorylation of ERK (HTRF), MKN1 cells
Assay type: cell-based
Settings: MKN1 cells (KRas WT); HTRF pERK; 3 h incubation
measured property: IC50

molecule	IC50
CCc1c(F)ccc2cc(O)cc(-c3ncc4c(N(C)CCNC(=O)n5ccnn5)nc(OC[C@@]56CCCN5C[C@H](F)C6)nc4c3F)c12	357 nM
CCc1c(F)ccc2cc(O)cc(-c3ncc4c(NCC56CC(C(=O)n7ccc(C)n7)(C5)C6)nc(OC[C@@]56CCCN5C[C@H](F)C6)nc4c3F)c12	> 10000 nM
N#Cc1c(N)sc2c(F)ccc(-c3c(Cl)cc4c(N5CCN(S(=O)(=O)n6cncn6)CC5)nc(OC[C@@]56CCCN5C[C@H](F)C6)nc4c3F)c12	184 nM
CCc1c(F)ccc2cc(O)cc(-c3ncc4c(N5CCC(C)(C(=O)n6ccc(C)n6)CC5)nc(OC[C@@]56CCCN5C[C@H](F)C6)nc4c3F)c12	2990 nM
CCc1c(F)ccc2cc(O)cc(-c3ncc4c(N5CCCC(C(=O)n6ccc(C)n6)CCC5)nc(OC[C@@]56CCCN5C[C@H](F)C6)nc4c3F)c12	2420 nM
Cc1ccn(C(=O)C2CCN(c3nc(OC[C@@]45CCCN4C[C@H](F)C5)nc4c(F)c(-c5ccc(F)c6sc(N)c(C#N)c56)c(Cl)cc34)C2)n1 (stereo partly drawn)	1210 nM
CCc1c(F)ccc2cc(O)cc(-c3ncc4c(N5CCC(C(=O)n6cc(OC)cn6)CC5)nc(OC[C@@]56CCCN5C[C@H](F)C6)nc4c3F)c12	3870 nM
CCc1c(F)ccc2cc(O)cc(-c3ncc4c(N5CCC(C(=O)N6CCCCC6=O)CC5)nc(OC[C@@]56CCCN5C[C@H](F)C6)nc4c3F)c12	2870 nM

Bench note: what IC50 did Cc1ccn(C(=O)CCCN(C)c2cc(O[C@@H](C)[C@@H]3CCCN3C)nc(-c3cc([C@]4(C)CCCc5sc(N)c(C#N)c54)sn3)n2)n1 show?
1860 nM

# input molecule: CCc1c(F)ccc2cc(O)cc(-c3ncc4c(N5CCC(C(=O)N(C)S(C)(=O)=O)CC5)nc(OC[C@@]56CCCN5C[C@H](F)C6)nc4c3F)c12 ; wanted: its IC50
726 nM

Tell me the measured IC50 of CN(CCCC(=O)Oc1cccc(F)c1)c1nc(OC[C@@]23CCCN2C[C@H](F)C3)nc2c(F)c(-c3ccc(F)c4sc(N)c(C#N)c34)c(Cl)cc12 , please.
159 nM

// query IC50 value for entry CN(CCCC(=O)Oc1ccc(F)cc1F)c1nc(OC[C@@]23CCCN2C[C@H](F)C3)nc2c(F)c(-c3ccc(F)c4sc(N)c(C#N)c34)c(Cl)cc12
177 nM
